- SYSTEM: HLA-A2 molecule (a product of the HLA-A*0201 gene) (human), A*02:0
REPORTED PROPERTY: -log Kd (Binding Experiment Data)

Exercise: Sample YLEEHPSAG (modifications not checked) [SEQ ID NO: 21 peptide] — what was its -log Kd (Binding Experiment Data)?
Key: 5.08 -log Kd

Exercise: Sample WMACHSAAF (modifications not checked) [SEQ ID NO: 30 peptide] — what was its -log Kd (Binding Experiment Data)?
Key: 5.79 -log Kd

Exercise: Sample IFLARSALI (modifications not checked) [SEQ ID NO: 35 peptide] — what was its -log Kd (Binding Experiment Data)?
Key: 5.94 -log Kd

Exercise: Sample YLEENPSAG (modifications not checked) [SEQ ID NO: 26 peptide] — what was its -log Kd (Binding Experiment Data)?
Key: 4.9 -log Kd
